system: advanced glycation end products (AGEs) formation; experiment: Bovine serum albumin-methylglyoxal assay on AGEs formation; format: biochemical; conditions: BSA 50 mg/mL + methylglyoxal 100 mM, 37°C, 24 h; mean ± SEM
Each entry below carries its recorded IC50.

{"molecule": "O=C(/C=C/c1ccc(O)c(O)c1)OC[C@H]1O[C@@H](OCCc2ccc(O)c(O)c2)[C@H](O)[C@@H](O)[C@@H]1O [Compound 4, calceolarioside B]", "display_unit": "µM", "comparator": ">", "IC50": 1000}
{"molecule": "N=C(N)NN [Aminoguanidine, aminoguanidine, reference compound]", "display_unit": "µM", "comparator": "=", "IC50": 820}
{"molecule": "O=c1cc(-c2ccc(O)c(O[C@@H]3O[C@H](CO)[C@@H](O)[C@H](O)[C@H]3O)c2)oc2cc(O)cc(O)c12 [Compound 5, luteolin-3′-O-β-D-glucopyranoside]", "display_unit": "µM", "comparator": "=", "IC50": 118}
{"molecule": "O=C(/C=C/c1ccc(O)c(O)c1)O[C@@H]1C[C@](O)(C(=O)O)C[C@@H](O)[C@H]1O [Compound 2, chlorogenic acid]", "display_unit": "µM", "comparator": ">", "IC50": 1000}
{"molecule": "O=C(O)CCc1ccc(O)c(O)c1 [Compound 1, 3-(3,4-dihydroxyphenyl)-propionic acid]", "display_unit": "µM", "comparator": "=", "IC50": 184}
{"molecule": "O=c1cc(-c2ccc(O)c(O)c2)oc2cc(O[C@@H]3O[C@H](CO)[C@@H](O)[C@H](O)[C@H]3O)cc(O)c12 [Compound 7, luteolin-7-O-β-D-glucopyranoside]", "display_unit": "µM", "comparator": ">", "IC50": 1000}
{"molecule": "O=c1c(O[C@@H]2O[C@H](CO)[C@@H](O)[C@H](O)[C@H]2O)c(-c2ccc(O)c(O)c2)oc2cc(O)cc(O)c12 [Compound 6, quercetin-3-O-β-D-glucopyranoside]", "display_unit": "µM", "comparator": ">", "IC50": 1000}

Attribution: paper PMC5343222
